Test system: HL-60
experimentDescription: Induction of apoptosis in human HL60 cells expressing BCRP
Format: functional, cell-based
The source made the active and inactive calls. The calls are words filed in the database; no cut-off is given here.
Tick one outcome: label 1 = active, label 0 = inactive

Before answering, review these 5 worked examples.
• CN(CC1CC2c3ccccc3C1c1ccccc12)C1CCCCC1 (stereo unspecified) = label 0
• CCN(CC)C(=O)O/N=C/C12c3ccccc3C(CC1C#N)c1ccccc12 (stereo unspecified) = label 0
• O=[N+]([O-])/C=C/c1c2ccccc2cc2ccccc12 = label 1
• CCOC(=O)N1CCN(C(=O)/C=C/c2c3ccccc3cc3ccccc23)CC1 = label 1
• CN(C(=O)C1CC2c3ccccc3C1(C=O)c1ccccc12)C1CCCCC1 (stereo unspecified) = label 1

Field: outcome | Entry: CN1CCN(C(=O)/C=C/c2c3ccccc3cc3ccccc23)CC1 label 0
